All figures here come from patent US4208520A.

Please respond with reported MIC for every item in the list.
Tested on: S. aureus 53-180
ASSAY TEXT: In vitro antibacterial activity (minimal inhibitory concentration, agar dilution)
Type: cell-based
EXPERIMENTAL PARAMETERS: Staphylococcus aureus, 53180, 18 h
Give bare numbers, in µg/mL.

Some compounds with known MIC results, for comparison:
Nc1nc(N)c2c(ccc3c2ccn3-c2ccc(C(F)(F)F)cc2)n1 ... 31.3
Cc1ccnc(-n2ccc3c4c(N)nc(N)nc4ccc32)c1 ... 0.976
CC(C)OC(=O)c1ccc(Cn2ccc3c4c(N)nc(N)nc4ccc32)cc1 ... 0.488
COC(=O)c1ccc(Cn2ccc3c4c(N)nc(N)nc4ccc32)cc1 ... 7.81
Nc1nc(N)c2c(ccc3c2ccn3Cc2ccc(O)cc2)n1 ... 0.488
Nc1nc(N)c2c(ccc3c2ccn3Cc2ccc(Cl)cc2Cl)n1 ... 0.488

Query: For the compound NC(=O)c1ccc(-n2ccc3c4c(N)nc(N)nc4ccc32)cc1 , what MIC is on record?
Response: 7.81

----------
Tested on: S. paratyphi 11737
ASSAY TEXT: In vitro antibacterial activity (minimal inhibitory concentration, agar dilution)
Assay type: cell-based
EXPERIMENTAL PARAMETERS: Salmonella enterica, Wellcotest Sensitivity Test Agar with 5% hemolyzed horse blood, 18 hours at 35° C.
PARAMETER MEASURED: MIC (µg/mL)
Give bare numbers, in µg/mL.

Some compounds with known MIC results, for comparison:
Cc1ccnc(-n2ccc3c4c(N)nc(N)nc4ccc32)c1 ... 7.81
CC(C)OC(=O)c1ccc(Cn2ccc3c4c(N)nc(N)nc4ccc32)cc1 ... 62.5
COC(=O)c1cccc(Cn2ccc3c4c(N)nc(N)nc4ccc32)c1 ... 31.3
Nc1nc(N)c2c(ccc3c2ccn3Cc2ccc(O)cc2)n1 ... 3.9
Nc1nc(N)c2c(ccc3c2ccn3Cc2ccc(Cl)cc2Cl)n1 ... 31.3
CC(=O)c1cccc(Cn2ccc3c4c(N)nc(N)nc4ccc32)c1 ... 0.976
Nc1nc(N)c2c(ccc3c2ccn3-c2ccncc2)n1 ... 0.976

Query: For the compound COC(=O)c1ccc(Cn2ccc3c4c(N)nc(N)nc4ccc32)cc1 , what MIC is on record?
Response: 250
